tested system: wild-type RNAP-GreB complex (Escherichia coli, UniProt P0A800+P0A8T7)
Construct: recombinant core RNAP saturated with omega plus purified GreB; ppGpp at Site 1; with DNA-directed RNA polymerase subunit alpha; DNA-directed RNA polymerase subunit beta; Transcription elongation factor GreB
test method notes: DRaCALA, one-site saturation fit
experimental parameters: read-out: Kd,app
metric: Kd

molecule="Nc1nc2c(ncn2[C@@H]2O[C@H](COP(=O)(O)OP(=O)(O)O)[C@@H](OP(=O)(O)OP(=O)(O)O)[C@H]2O)c(=O)[nH]1 [ppGpp, guanosine 5'-diphosphate 3'-diphosphate]" tested_system="wild-type RNAP-GreB complex (Escherichia coli, UniProt P0A800+P0A8T7)" metric=Kd reported="~6.4 µM"

* * *

tested system: wild-type RNAP (without DksA; Site 1 only) (Escherichia coli, UniProt P0A800+P0A8T7, P0A800:DEL2-5)
Construct: recombinant core RNAP, alpha, beta, beta' from one plasmid and omega from a second plasmid, omega saturating; with DNA-directed RNA polymerase subunit alpha; DNA-directed RNA polymerase subunit beta
test method notes: DRaCALA, one-site saturation fit
metric: Kd

molecule="Nc1nc2c(ncn2[C@@H]2O[C@H](COP(=O)(O)OP(=O)(O)O)[C@@H](OP(=O)(O)OP(=O)(O)O)[C@H]2O)c(=O)[nH]1 [ppGpp, guanosine 5'-diphosphate 3'-diphosphate]" metric=Kd reported="> 100 µM"

* * *

tested system: wild-type RNAP with DksA (Sites 1 and 2) (Escherichia coli, UniProt P0A800+P0A8T7+P0ABS1)
Construct: recombinant core RNAP saturated with omega plus saturating purified DksA; with DNA-directed RNA polymerase subunit alpha; DNA-directed RNA polymerase subunit beta
test method notes: DRaCALA, one-site saturation fit
experimental parameters: read-out: Kd,app
metric: Kd (µM)

molecule="Nc1nc2c(ncn2[C@@H]2O[C@H](COP(=O)(O)OP(=O)(O)O)[C@@H](OP(=O)(O)OP(=O)(O)O)[C@H]2O)c(=O)[nH]1 [ppGpp, guanosine 5'-diphosphate 3'-diphosphate]" tested_system="wild-type RNAP with DksA (Sites 1 and 2) (Escherichia coli, UniProt P0A800+P0A8T7+P0ABS1)" metric=Kd reported=3.3
